From: patent US20020037885A1

Endpoint Label: melting point

Example molecules with recorded melting point:
C=CCC(N)c1ccccc1-c1ccc(C)c(F)c1.O=C(O)/C=C/C(=O)O (stereo not drawn) : 194 to 196 °C
C=CCNCc1ccccc1-c1noc2ccccc12.Cl : 176 °C
C=CCC(N)c1ccccc1-c1noc2cc(C(F)(F)F)ccc12.O=C(O)/C=C/C(=O)O (stereo not drawn) : 179 to 186 °C
c1ccc(CNC(Cc2ccccc2)c2ccccc2-c2noc3ccccc23)cc1 (stereo not drawn) [Example 16(2)] : 153 °C
C=CCC(N)c1ccccc1-c1cccs1.O=C(O)/C=C/C(=O)O (stereo not drawn) : 196 to 197 °C
C=CCC(N)c1ccccc1-c1noc2c1CCCC2.O=C(O)/C=C\C(=O)O (stereo not drawn) [15 (25)] : 144 to 145 °C
C=CC[C@H](N)c1cc(F)ccc1-c1noc2ccccc12.O=C(O)/C=C/C(=O)O [Example 13(3)] : 174 to 176 °C
C=CCC(N)c1ccccc1-c1noc2ncccc12.O=C(O)/C=C\C(=O)O (stereo not drawn) [16 (5)] : 187 to 188 °C (dec.)

Noted for NC(CCCC(F)(F)F)c1ccccc1-c1noc2ccccc12.O=C(O)/C=C/C(=O)O (stereo not drawn) : its melting point reads 203 to 210 °C

====

Attribute: melting point

Please review the entries below; each comes with its answer.
CCCC(N)c1ccccc1-c1noc2ccccc12.Cl (stereo not drawn) : 118 to 126 °C
C=CCC(N)c1ccccc1-c1cccc(Cl)c1C.O=C(O)/C=C/C(=O)O (stereo not drawn) : 192 to 196 °C
C#CCC(N)c1ccccc1-c1noc2cc(Cl)ccc12.Cl (stereo not drawn) : 209 to 214 °C

Reported melting point ( C=CCC(N)c1ccccc1-c1csc2ccccc12.O=C(O)/C=C\C(=O)O (stereo not drawn) ) = 185 to 187 °C

GET /value?item= C=CCC(N)c1ccccc1-c1noc2ccc(F)cc12.Cl (stereo not drawn) &field=melting point returns 209 to 214 °C

Kindly note the recorded melting point for C=CCC(N)c1ccccc1-c1ccc(Cl)s1.O=C(O)/C=C/C(=O)O (stereo not drawn) , which is 192 to 199 °C

====

Examples of compounds with documented melting point follow.

Examples with their reported melting point follow.
Cl.NCc1ccccc1-c1noc2ccccc12 : 233 °C
C=CCC(N)c1ccc(-c2noc3ccccc23)s1.O=C(O)/C=C/C(=O)O (stereo not drawn) : 182 to 189 °C
C=CCC(N)c1ccccc1-c1ccoc1.O=C(O)/C=C/C(=O)O (stereo not drawn) : 183 to 185 °C

Looking up C=CCC(N)c1ccccc1-c1ccc(C)cc1F.O=C(O)/C=C/C(=O)O (stereo not drawn) , I found its melting point recorded as 209 to 211 °C

According to the records, this compound C=CCC(N)c1ccccc1-c1cc(C)on1.O=C(O)/C=C\C(=O)O (stereo not drawn) displays melting point of 130 to 138 °C

// `C=CC[C@@H](N)c1ccccc1-c1noc2cc(F)ccc12.Cl` : melting point value = 148 to 150 °C

====

Tested on: marble burying behaviour in mice
Assay: Mouse Marble Burying Assay (BUR)
Assay type: in vivo
Details: Mus musculus; sc; effective dose causing 50% inhibition of burying compared to control mice; read-out: BUR ED50 (SC)
Endpoint Label: ED50 (mg/kg)
# number only, unit mg/kg dropped from output

Cl.NC(Cc1ccccc1)c1ccccc1-c1noc2ccccc12 (stereo not shown) [36(1)] : 2.5
C=CC[C@@H](N)c1ccccc1-c1noc2cc(Cl)ccc12.Cl [12(2)] : 3.4
C=CC[C@H](N)c1ccccc1-c1noc2ccccc12.Cl [Example 13] : 0.39
C=CCC(N)c1ccccc1-c1noc2cc(Cl)ccc12.Cl (stereo not shown) [11(2)] : 0.7
Cl.NC(Cc1ccsc1)c1ccccc1-c1noc2ccccc12 (stereo not shown) [36(2)] : 1.2

Reported ED50 for Cl.NC(c1ccccc1-c1noc2ccccc12)C1CC=CCC1 (stereo not shown) [Example 37] was 3.1

According to the records, this compound C=CCC(N)c1ccccc1-c1noc2ccccc12.Cl (stereo not shown) [Example 11] displays ED50 of 1.04

Reported ED50 of C=CCC(N)c1ccccc1-c1noc2ccc(F)cc12.Cl (stereo not shown) [11(3)] : 2.68

Field ED50 (entry Cl.NC(CC1CC1)c1ccccc1-c1noc2ccccc12 (stereo not shown) [36(6)] ) reads 1.5

Documented ED50 of C=CC[C@H](N)c1ccccc1-c1noc2cc(F)ccc12.O=C(O)/C=C/C(=O)O [13(1)] : 1
